Target: T1, similar peptide SP-05-0009, source protein not stated peptide on HLA-A*02:01 (human)
T1 peptide: KIIDLLPKV
Assay: killing
measure: binding result

# binder, measure, test-value
data = [
    ("TCR-12 (TCR, V domains shown) Valpha: QLLEQSPQFLSIQEGENLTVYCNSSSVFSSLQWYRQEPGEGPVLLVTVVTGGEVKKLKRLTFQFGDARKDSSLHITAAQPGDTGLYLCAGGLSDSYDKVIFGPGTSLSVIP Vbeta: EVTQTPKHLVMGMTNKKSLKCEQHMGHRAMYWYKQKAKKPPELMFVYSYEKLSINESVPSRFSPECPNSSLLNLHLHALQPEDSALYLCASSQGVGQEYGYTFGSGTRLTVV", "binding result", "no recognition"),
    ("TCR-1 (TCR, V domains shown) Valpha: QTVTQSQPEMSVQEAETVTLSCTYDTSENNYYLFWYKQPPSRQMILVIRQEAYKQQNATENRFSVNFQKAAKSFSLKISDSQLGDTAMYFCAPLGLVAGSARQLTFGSGTQLTVLP Vbeta: GVSQDPRHKITKRGQNVTFRCDPISEHNRLYWYRQTLGQGPEFLTYFQNEAQLEKSRLLSDRFSAERPKGSFSTLEIQRTEQGDSAMYLCASSTDITSYEQYFGPGTRLTVT", "binding result", "no recognition"),
]
